Data origin: patent US10689367B2

Target Entity: human APJ receptor (Homo sapiens (Human), UniProt P35414)
Sequence (P35414 whole entry): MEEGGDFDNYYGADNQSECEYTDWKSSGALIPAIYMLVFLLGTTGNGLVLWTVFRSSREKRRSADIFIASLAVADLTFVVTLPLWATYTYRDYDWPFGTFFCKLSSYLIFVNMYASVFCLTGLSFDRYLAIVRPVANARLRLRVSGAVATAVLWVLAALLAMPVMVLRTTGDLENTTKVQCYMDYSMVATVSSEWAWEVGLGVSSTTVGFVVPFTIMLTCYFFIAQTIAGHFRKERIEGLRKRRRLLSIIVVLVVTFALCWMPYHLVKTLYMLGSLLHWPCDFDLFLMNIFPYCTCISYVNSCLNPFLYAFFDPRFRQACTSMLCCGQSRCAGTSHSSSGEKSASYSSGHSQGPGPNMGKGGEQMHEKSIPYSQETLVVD
Assay Overview: [35S]GTPγS binding assay on membranes from CHO cells stably expressing human APJ receptor
Assay type: biochemical
Conditions Used: membranes of CHO cells stably expressing human APJ receptor, read-out: Activity hAPJ SPA EC50 IP
Metric: EC50 (nM)
Respond numerically; units are nM and should not be typed.

INSERT INTO results (compound, unit_name, obs_value) VALUES
  ('COc1cccc(-c2nnc(NS(=O)(=O)[C@@H](C)[C@H](OC)c3ncc(Cl)cn3)n2CCS(C)(=O)=O)n1', 'nM', 211);

Prompt: For the record COc1cccc(-c2nnc(NS(=O)(=O)[C@@H](C)[C@H](OC)c3ncc(Cl)cn3)n2C(CO)CO)n1 , what value of EC50 is listed for human APJ receptor (Homo sapiens (Human), UniProt P35414)?
Response: 50

Prompt: And then COc1cccc(-c2nnc(NS(=O)(=O)[C@@H](C)[C@H](C)c3ncc(Cl)cn3)n2Cc2cc(C)no2)n1 , what is it?
Response: 26

---

Target Entity: human APJ receptor (Homo sapiens (Human))
Assay Overview: [35S]GTPγS binding assay on membranes from CHO cells stably expressing human APJ receptor
Conditions Used: membranes of CHO cells stably expressing human APJ receptor, read-out: Activity hAPJ SPA EC50 IP
Description: The human APJ receptor was cloned by polymerase chain reaction and the gene encoding the receptor was subcloned in pFLAG-CMV™-3 expression vector (Sigma, Saint Louis, Mo. USA) in-house at Amgen. […] The optimum experimental conditions for the concentrations of GDP, MgCl2, and NaCl in the assay buffer were initially determined. […] Incubation was at RT for 90 min and the microplate was read using a ViewLux™ ultra HTS Microplate Imager (PerkinElmer, Inc.). […]
pEC50: −log10 of the molar value.
Tag: true (1) if measured pEC50 is not below 8, false (0) if it is.

Prompt: Threshold query (pEC50 >= 8) on COc1cccc(-c2nnc(NS(=O)(=O)[C@@H](C)[C@H](C)c3ncc(Cl)cn3)n2Cc2ccno2)n1
Response: false (0)

Prompt: And then COc1cccc(-c2nnc(NS(=O)(=O)[C@@H](C)[C@H](C)c3ncc(Cl)cn3)n2[C@H](C)c2cnn(C)c2)n1 (racemic) [Example 298.0] , what is it?
Response: true (1)

Prompt: And then CC[C@H](c1c(C)noc1C)n1c(NS(=O)(=O)[C@@H](C)[C@H](OC)c2ncc(Cl)cn2)nnc1-c1cccc(OC)n1 (mixture of isomers) , what is it?
Response: true (1)

Prompt: And then COc1cccc(-c2nnc(NS(=O)(=O)[C@@H](C)[C@H](C)c3ncc(Cl)cn3)n2[C@@H](C)c2nc(C)no2)n1 (single isomer, unassigned) [Example 246.0] , what is it?
Response: true (1)

Prompt: And then COC[C@H](C)n1c(NS(=O)(=O)[C@@H](C)[C@H](C)c2ncc(Cl)cn2)nnc1-c1cccc(OC)n1 , what is it?
Response: true (1)

Prompt: And then COc1cccc(-c2nnc(NS(=O)(=O)[C@@H](C)[C@@H](OC(C)C)c3ncc(C)cn3)n2[C@@H](C)c2ccno2)n1 (single isomer, unassigned) [Example 217.0] , what is it?
Response: true (1)

---

Target Entity: human APJ receptor (Homo sapiens (Human))
Assay Overview: [35S]GTPγS binding assay on membranes from CHO cells stably expressing human APJ receptor
Conditions Used: membranes of CHO cells stably expressing human APJ receptor, read-out: Activity hAPJ SPA EC50 IP
Binning rule for recorded EC50: group 1: < 3 nM; group 2: ≥ 3 nM and < 10 nM; group 3: ≥ 10 nM

See these solved cases before continuing.
INSERT INTO results (molecule, classification) VALUES
  ('COc1cccc(-c2nnc(NS(=O)(=O)[C@@H](C)[C@H](OC)c3ncc(Cl)cn3)n2[C@H]2C[C@H](OC)C2)n1', 'group 3'),
  ('COc1cccc(-c2nnc(NS(=O)(=O)[C@@H](C)[C@H](OC)c3ncc(Cl)cn3)n2[C@@H](C)c2ncc(C)o2)n1 (single isomer, unassigned) [Example 256.0]', 'group 1'),
  ('CC[C@H]([C@@H]1CCCCO1)n1c(NS(=O)(=O)[C@@H](C)[C@H](OC)c2ncc(Cl)cn2)nnc1-c1cccc(OC)n1 (single isomer, unassigned) [Example 326.0]', 'group 1'),
  ('COc1cccc(-c2nnc(NS(=O)(=O)[C@@H](C)[C@@H](OC(C)C)c3ncc(C)cn3)n2C[C@H]2CCCCO2)n1 (single isomer, unassigned) [Example 300.0]', 'group 3'),
  ('COc1cccc(-c2nnc(NS(=O)(=O)[C@@H](C)[C@H](OC)c3cnc(C)cn3)n2C2(C3CC3)CC2)n1', 'group 2'),
  ('COCC1(n2c(NS(=O)(=O)[C@@H](C)[C@@H](OC(C)C)c3ncc(C)cn3)nnc2-c2cncc(C)c2)CC1', 'group 3'),
  ('COc1cccc(-c2nnc(NS(=O)(=O)[C@@H](C)[C@H](OC)c3ncc(Cl)cn3)n2[C@H](C)c2cncs2)n1 (single isomer, unassigned) [Example 346.0]', 'group 2'),
  ('CO[C@H](c1cnc(C)cn1)[C@H](C)S(=O)(=O)Nc1nnc(-c2ccccn2)n1C1(C2CC2)CC1', 'group 3'),
  ('COCC(COC)n1c(NS(=O)(=O)[C@@H](C)[C@@H](OC(C)C)c2ncc(F)cn2)nnc1-c1cccc(OC)n1', 'group 1'),
  ('COCC(COC)n1c(NS(=O)(=O)[C@@H](C)[C@@H](OC(C)C)c2ncc(OC)cn2)nnc1-c1cccc(OC)n1', 'group 1');

Prompt: Kindly state the category for this molecule: COc1cccc(-c2nnc(NS(=O)(=O)[C@@H](C)[C@H](OC)c3ncc(C)cn3)n2C2CC2)n1
Response: group 3

Prompt: And then COc1cccc(-c2nnc(NS(=O)(=O)[C@@H](C)[C@H](C)c3ncc(Cl)cn3)n2[C@@H](C)c2noc(C)n2)n1 (single isomer, unassigned) , what is it?
Response: group 2

Prompt: And then COc1cccc(-c2nnc(NS(=O)(=O)[C@@H](C)[C@H](OC)c3ncc(Cl)cn3)n2[C@@H](C)c2noc(C)n2)n1 (single isomer, unassigned) [Example 244.0] , what is it?
Response: group 2

---

Target Entity: human APJ receptor (Homo sapiens (Human), UniProt P35414)
Assay Overview: [35S]GTPγS binding assay on membranes from CHO cells stably expressing human APJ receptor
Conditions Used: membranes of CHO cells stably expressing human APJ receptor, read-out: Activity hAPJ SPA EC50 IP
Metric: pEC50
// pEC50 here means minus log10 of the molar concentration (mol/L)

Worked cases, answers included:
INSERT INTO measurements (compound, obs_value) VALUES
  ('COc1cccc(-c2nnc(NS(=O)(=O)[C@@H](C)[C@H](OC)c3ncc(Cl)cn3)n2Cc2cnoc2)n1 [Example 186.0]', 7.01),
  ('COc1cccc(-c2nnc(NS(=O)(=O)[C@@H](C)[C@H](OC)c3ncc(Cl)cn3)n2C2C3(CC3)C23CC3)n1 [Example 163.0]', 7.28),
  ('COCC(COC)n1c(NS(=O)(=O)[C@@H](C)[C@@H](OC(C)C)c2ncc(C)cn2)nnc1-c1cccc(OC)n1 [Example 104.0]', 9.41);

Attention now shifts to the item below.
Prompt: Quick check: pEC50 of COc1cccc(-c2nnc(NS(=O)(=O)[C@@H](C)[C@H](OC)c3cnc(C)cn3)n2C2CC2)n1 [Example 122.0] ?
Response: 7.25

---

// reported EC50 for each item listed
Target Entity: human APJ receptor (Homo sapiens (Human), UniProt P35414)
Assay Overview: [35S]GTPγS binding assay on membranes from CHO cells stably expressing human APJ receptor
Conditions Used: membranes of CHO cells stably expressing human APJ receptor, read-out: Activity hAPJ SPA EC50 IP
Method: The human APJ receptor was cloned by polymerase chain reaction and the gene encoding the receptor was subcloned in pFLAG-CMV™-3 expression vector (Sigma, Saint Louis, Mo. USA) in-house at Amgen. […] The optimum experimental conditions for the concentrations of GDP, MgCl2, and NaCl in the assay buffer were initially determined. […] Incubation was at RT for 90 min and the microplate was read using a ViewLux™ ultra HTS Microplate Imager (PerkinElmer, Inc.). […]
Respond numerically; units are nM and should not be typed.

Worked cases, answers included:
INSERT INTO results (compound, obs_value) VALUES
  ('COc1cccc(-c2nnc(NS(=O)(=O)[C@@H](C)[C@H](OC)c3ncc(Cl)cn3)n2Cc2cc(C)no2)n1', 18),
  ('CC[C@H]([C@@H]1CCCCO1)n1c(NS(=O)(=O)[C@@H](C)[C@H](OC)c2ncc(C)cn2)nnc1-c1cccc(OC)n1 (single isomer, unassigned) [Example 330.0]', 0.23),
  ('COc1cccc(-c2nnc(NS(=O)(=O)[C@@H](C)[C@H](C)c3ncc(Cl)cn3)n2Cc2ccon2)n1', 5.1);

Attention now shifts to the item below.
Prompt: Quick check: EC50 of COc1cccc(-c2nnc(NS(=O)(=O)[C@@H](C)[C@H](OC)c3ncc(Cl)cn3)n2C[C@@H]2COCCO2)n1 (racemic) [Example 304.0] ?
Response: 20
